Listed here: items and their measured inhibition at 20 µM.
Biological target: cdc42 (Homo sapiens, UniProt P60953)
Construct: made in house
Sequence (P60953 whole entry): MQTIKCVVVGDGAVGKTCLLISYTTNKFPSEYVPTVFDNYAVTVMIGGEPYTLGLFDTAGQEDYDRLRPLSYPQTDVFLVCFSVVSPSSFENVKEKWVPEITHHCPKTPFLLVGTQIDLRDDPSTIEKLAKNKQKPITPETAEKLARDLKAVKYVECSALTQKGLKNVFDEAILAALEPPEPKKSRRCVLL
Experiment: Cdc42 GTP Binding Domain Inhibition Assay
Settings: read-out: Cdc42: % inh.

[
  {
    "compound": "COc1cc(Nc2nc(-c3nccn3C)nn3cc(-c4ccn(C(C)C)n4)c(C)c23)ncn1 [Compound 6]",
    "value_kind": "inhibition at 20 µM",
    "result": "50 to 75%"
  },
  {
    "compound": "COc1cccc(-c2cn3nc(-c4nccn4C)nc(N[C@@H]4CC[C@@H](OC)C4)c3c2-c2ccccc2)c1Cl.Cl (racemic) [Compound 34, hydrochloride]",
    "value_kind": "inhibition at 20 µM",
    "result": "1 to 25%"
  }
]

Qu. Which inhibition at 20 µM value belongs to COc1ccnc(Nc2nc(-c3nccn3C)nn3cc(-c4ccn(C(F)F)n4)c(C)c23)n1 [Compound 95] ?
Ans. 50 to 75%

Qu. Another compound to look at: COc1cc(Nc2nc(-c3nccn3C)nn3cc(-c4ccncc4)c(C)c23)ncn1 [Compound 49]
Ans. 1 to 25%

Qu. Cc1c(-c2ccn(C(C)C)n2)cn2nc(-c3nccn3C)nc(Nc3noc(C4CC4)n3)c12 [Compound 75] ?
Ans. 1 to 25%

Qu. Try the compound COc1cc(Nc2nc(-c3nccn3C)nn3cc(-c4ccccn4)c(C)c23)ncn1 [Compound 94]
Ans. 26 to 49%

Qu. Record: Cc1c(-c2ccn(C(C)C)n2)cn2nc(-c3nccn3C)nc(Nc3nnc(C4CC4)o3)c12 [Compound 67]
Ans. 26 to 49%
